- experimental-system: T1, FZD5 CRD (Homo sapiens, UniProt Q13467)
- T1 construct: K29-T156; GPI anchor signal (C); expressed in transfected cells; host or cells: CHO cells, lentiviral pLenti-puro
- T1 sequence (Q13467 29-156): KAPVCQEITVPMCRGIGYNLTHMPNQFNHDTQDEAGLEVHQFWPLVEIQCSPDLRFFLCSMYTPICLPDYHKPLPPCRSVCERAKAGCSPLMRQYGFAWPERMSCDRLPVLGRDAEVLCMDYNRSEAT
- assay-remarks: Immunofluorescence of anti-FZD5 Fab binding to CHO cells overexpressing Frizzled CRD
- Set-up: key: −: no binding; +: very weak binder; ++: weak binder; +++: good binder; ++++: very good binder
test-readout: Immunofluorescence binding, Frizzled CRD overexpressed on CHO cells: FZD5

| molecule | assay-result |
| --- | --- |
| Fab-2914: anti-FZD5 Fab with antibody variable region Fv-2914; CDR SEQ ID NOs: 35, 36, 53, 92, 129, 162 (antibody, V domains shown) VH: EVQLVESGGGLVQPGGSLRLSCAASGFNIYYSYMHWVRQAPGKGLEWVASIYPSSSSTSYADSVKGRFTISADTSKNTAYLQMNSLRAEDTAVYYCARGAMDYWGQGTLVTVSS VL: DIQMTQSPSSLSASVGDRVTITCRASQSVSSAVAWYQQKPGKAPKLLIYSASSLYSGVPSRFSGSRSGTDFTLTISSLQPEDFATYYCQQWYYGSLITFGQGTKVEIK | ++++ |
| Fab-2934: anti-FZD5 Fab with antibody variable region Fv-2934; CDR SEQ ID NOs: 35, 36, 73, 110, 149, 155 (antibody, V domains shown) VH: EVQLVESGGGLVQPGGSLRLSCAASGFNISYSYMHWVRQAPGKGLEWVASIYSSSGSTSYADSVKGRFTISADTSKNTAYLQMNSLRAEDTAVYYCARGAIDYWGQGTLVTVSS VL: DIQMTQSPSSLSASVGDRVTITCRASQSVSSAVAWYQQKPGKAPKLLIYSASSLYSGVPSRFSGSRSGTDFTLTISSLQPEDFATYYCQQWYHYGLITFGQGTKVEIK | ++++ |
